The reported measurements were obtained from paper PMC6263338.

Reported inhibition at 1500 µg/mL values for the following compounds.
- System Name: Xanthine Oxidase (from buttermilk) (Bos taurus, UniProt P80457)
- Construct: Xanthine Oxidase (from buttermilk, Sigma Co., Ltd. X4875); purchased Sigma Co., Ltd. X4875; host or cells: buttermilk
- Sequence (P80457 whole entry): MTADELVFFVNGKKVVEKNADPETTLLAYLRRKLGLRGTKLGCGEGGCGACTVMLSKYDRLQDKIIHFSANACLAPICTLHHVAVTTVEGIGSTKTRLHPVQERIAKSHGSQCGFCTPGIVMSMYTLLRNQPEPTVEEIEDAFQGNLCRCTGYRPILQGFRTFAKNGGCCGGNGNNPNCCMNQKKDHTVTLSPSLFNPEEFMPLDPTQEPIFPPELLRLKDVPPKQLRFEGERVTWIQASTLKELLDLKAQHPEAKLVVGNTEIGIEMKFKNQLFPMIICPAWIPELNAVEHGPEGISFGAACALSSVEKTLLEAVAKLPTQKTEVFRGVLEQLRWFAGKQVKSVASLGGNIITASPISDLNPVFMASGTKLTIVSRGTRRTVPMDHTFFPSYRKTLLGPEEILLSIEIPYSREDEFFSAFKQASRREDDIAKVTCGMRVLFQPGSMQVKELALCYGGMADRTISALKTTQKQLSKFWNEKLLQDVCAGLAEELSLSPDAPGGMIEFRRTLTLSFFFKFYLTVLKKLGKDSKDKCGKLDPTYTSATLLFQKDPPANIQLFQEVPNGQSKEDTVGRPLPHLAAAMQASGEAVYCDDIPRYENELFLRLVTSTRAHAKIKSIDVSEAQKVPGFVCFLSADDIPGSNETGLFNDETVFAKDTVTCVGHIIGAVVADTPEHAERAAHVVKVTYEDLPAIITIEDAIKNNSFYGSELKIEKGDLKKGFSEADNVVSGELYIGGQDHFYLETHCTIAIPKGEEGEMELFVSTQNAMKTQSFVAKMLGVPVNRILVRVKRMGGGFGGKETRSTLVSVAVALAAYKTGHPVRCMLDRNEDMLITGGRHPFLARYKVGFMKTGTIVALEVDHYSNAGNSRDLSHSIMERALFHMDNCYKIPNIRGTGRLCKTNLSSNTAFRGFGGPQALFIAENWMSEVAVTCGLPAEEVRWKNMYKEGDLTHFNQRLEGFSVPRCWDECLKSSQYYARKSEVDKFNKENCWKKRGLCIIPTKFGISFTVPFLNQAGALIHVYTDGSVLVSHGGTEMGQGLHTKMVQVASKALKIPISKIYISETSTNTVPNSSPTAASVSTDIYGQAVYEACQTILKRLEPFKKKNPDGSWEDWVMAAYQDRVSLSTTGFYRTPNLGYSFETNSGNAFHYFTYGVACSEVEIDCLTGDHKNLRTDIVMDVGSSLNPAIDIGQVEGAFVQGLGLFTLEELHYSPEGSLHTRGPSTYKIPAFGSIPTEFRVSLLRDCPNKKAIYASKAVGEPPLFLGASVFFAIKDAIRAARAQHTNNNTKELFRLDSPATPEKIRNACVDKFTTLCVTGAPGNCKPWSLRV
- Experiment Description: In vitro XOD inhibitory activity (Xanthine Oxidase Detection Kit)
- Type: biochemical
- Reported Conditions: read-out: XOD inhibitory activity % inhibition (1.5 mg/mL)
Only the number, expressed in %, is required.

Worked set:
- COc1ccc(C=CCO[C@@H]2O[C@H](CO)[C@@H](O)[C@H](O)[C@H]2O)cc1OC [Compound 10d]: 35
- COc1ccccc1C=CCO[C@@H]1O[C@H](CO)[C@@H](O)[C@H](O)[C@H]1O [Compound 10b, 2-Methoxycinnamyl β-D-glucopyranoside]: 12
- COc1cc(C=CCO[C@@H]2O[C@H](CO)[C@@H](O)[C@H](O)[C@H]2O)ccc1O [Compound 16c]: 23

Now for another entry.
QUERY: Form field: inhibition at 1500 µg/mL recorded for COc1ccc(C=CCO[C@@H]2O[C@H](CO)[C@@H](O)[C@H](O)[C@H]2O)cc1 [Compound 10a, 4-Methoxycinnamyl β-D-glucopyranoside] with Xanthine Oxidase (from buttermilk) (Bos taurus, UniProt P80457) (enter value)
RESULT: 10

* * *

- System Name: AChE (from drosophila) (Drosophila melanogaster)
- Construct: purchased Jing Peng Bio-Pesticide Co., Ltd. Shandong, P. R. China
- Experiment Description: In vitro AChE inhibitory activity (Acetylcholinesterase Detection Kit)
- Format: biochemical
- Reported Conditions: 1.5 mg/mL; compounds in 1% DMSO; mean ± SD, triplicate; read-out: AChE inhibitory activitiy % inhibition (1.5 mg/mL)
Reported inhibition at 1500 µg/mL values for the following molecules.
Form entry: enter the amount, then its unit.

Worked set:
* OC[C@H]1O[C@@H](OCC=Cc2ccccc2F)[C@H](O)[C@@H](O)[C@@H]1O [Compound 10i, 2-Fluorocinnamyl β-D-glucopyranoside] | 18%
* OC[C@H]1O[C@@H](OCC=Cc2ccc(Br)cc2)[C@H](O)[C@@H](O)[C@@H]1O [Compound 10l, 4-Bromocinnamyl β-D-glucopyranoside] | 57%
* O[C@@H]1[C@@H](O)[C@H](OC/C=C/c2ccccc2)O[C@H](CO[C@@H]2OC[C@H](O)[C@H](O)[C@H]2O)[C@H]1O [Compound 20, Rosavin] | 85%
* OC[C@H]1O[C@@H](OCC=Cc2ccc3c(c2)OCO3)[C@H](O)[C@@H](O)[C@@H]1O [Compound 10g] | 15%
* OC[C@H]1O[C@@H](OCC=Cc2cccc(O)c2)[C@H](O)[C@@H](O)[C@@H]1O [Compound 16b, 3-Hydroxycinnamyl β-D-glucopyranoside] | 75%

QUERY: Form field: inhibition at 1500 µg/mL recorded for OC[C@H]1O[C@@H](OCC=Cc2ccc(F)c(F)c2)[C@H](O)[C@@H](O)[C@@H]1O [Compound 10k, 3,4-Difluorocinnamyl β-D-glucopyranoside] with AChE (from drosophila) (Drosophila melanogaster) (enter value)
RESULT: 43%

* * *

- System Name: Xanthine Oxidase (from buttermilk) (Bos taurus)
- Construct: Xanthine Oxidase (from buttermilk, Sigma Co., Ltd. X4875); purchased Sigma Co., Ltd. X4875; host or cells: buttermilk
- Experiment Description: In vitro XOD inhibitory activity (Xanthine Oxidase Detection Kit)
- Format: biochemical
Reported IC50 values for the following compounds.
Only the number, expressed in µM, is required.

Worked set:
• COc1cc(C=CCO[C@@H]2O[C@H](CO)[C@@H](O)[C@H](O)[C@H]2O)cc(OC)c1OC [Compound 10h] = 69.3
• O[C@@H]1[C@@H](O)[C@H](OC/C=C/c2ccccc2)O[C@H](CO[C@@H]2OC[C@H](O)[C@H](O)[C@H]2O)[C@H]1O [Compound 20, Rosavin] = 5.55
• OC[C@H]1O[C@@H](OCC=Cc2ccc(O)cc2)[C@H](O)[C@@H](O)[C@@H]1O [Compound 16a, 4-Hydroxycinnamyl β-D-glucopyranoside] = 79.3

Now for another entry.
QUERY: Recorded IC50 of COc1ccc(C=CCO[C@@H]2O[C@H](CO)[C@@H](O)[C@H](O)[C@H]2O)cc1OC [Compound 10d] , please.
RESULT: 73.5
